# Read-out: CD69, CD69 (gene 969)
# protocol.description: BSK_SAg_CD69: BioMAP Diversity Plus: SAg Assay for CD69 Biomarker Activity (AID 2283089)
# experimental.parameters: primary human HUVEC with PBMC; actives raise or lower the signal
Activity calls are given as the source filed them. How the source made its calls: active means hit-call score of the fitted dose curve at least 0.9, where 1 is the maximum; inactive means score below 0.9.
Labels: 1 (yes) for active, 0 (no) for inactive

>  <compound>
CCCCCCCCCC(=O)OCC

>  <label>
0 (no)

$$$$
>  <compound>
CC1=CC(C)C(C=O)C(C)C1 (stereo unspecified) (tested in a mixture with another compound)

>  <label>
0 (no)

$$$$
>  <compound>
CCCCCCCCCCCCS

>  <label>
1 (yes)

$$$$
>  <compound>
CC(C)CCCC(C)(C)O

>  <label>
0 (no)

$$$$
>  <compound>
Nc1ccc(N)c([N+](=O)[O-])c1

>  <label>
1 (yes)

$$$$
>  <compound>
CCCO[Si](OCCC)(OCCC)OCCC

>  <label>
0 (no)

$$$$
>  <compound>
C#C[C@]1(O)CC[C@H]2[C@@H]3CCc4cc(O)ccc4[C@H]3CC[C@@]21C

>  <label>
0 (no)

$$$$
>  <compound>
CC(C)(CO)CO

>  <label>
0 (no)

$$$$
>  <compound>
O=C1OC2(c3ccc(O)cc3Oc3cc(O)ccc32)c2ccccc21

>  <label>
0 (no)

$$$$
>  <compound>
O=S1(=O)CC(Cl)(Cl)C(Cl)(Cl)C1

>  <label>
1 (yes)

$$$$
>  <compound>
O=C(O)C(F)(F)C(F)(F)C(F)(F)C(F)(F)C(F)(F)C(F)(F)C(F)(F)C(F)F

>  <label>
0 (no)

$$$$

----------
# protocol.description: BSK_CASM3C_SRB: Viability Assessment in the BioMAP Diversity Plus: CASM3C Assay (AID 2283050);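 further: total protein by SRB staining as cytotoxicity measure in parallel cultures; cells exposed to compound for 24 h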
# experimental.parameters: primary human coronary artery smooth muscle cells
The source made the active and inactive calls. Rule for the calls: active = hit-call score of the fitted dose curve at least 0.9, where 1 is the maximum; inactive = score below 0.9.
Classes used: active, inactive

>  <molecule>
CC(=O)c1ccc(C)cc1

>  <label>
inactive

$$$$
>  <molecule>
CC(C)Cc1ccc(C(C)C(=O)O)cc1 (stereo not drawn)

>  <label>
inactive

$$$$
>  <molecule>
CC1=CC(C)C(C=O)C(C)C1 (stereo not drawn) (tested in a mixture with another compound)

>  <label>
inactive

$$$$
>  <molecule>
O=C(O)C(F)(F)OC(F)(F)C(F)(F)OC(F)(F)C(F)(F)C(F)(F)C(F)(F)F

>  <label>
inactive

$$$$
>  <molecule>
CCC(=O)OCC=Cc1ccccc1

>  <label>
inactive

$$$$
>  <molecule>
O=C(O)C(F)(F)C(F)(F)C(F)(F)C(F)(F)C(F)(F)C(F)(F)C(F)(F)C(F)F

>  <label>
inactive

$$$$
>  <molecule>
O=S1(=O)CC(Cl)(Cl)C(Cl)(Cl)C1

>  <label>
active

$$$$
>  <molecule>
CCn1cc(C(=O)O)c(=O)c2ccc(C)nc21

>  <label>
inactive

$$$$
>  <molecule>
CCCCOCCOCCO

>  <label>
inactive

$$$$
>  <molecule>
CC(C)(CO)CO

>  <label>
inactive

$$$$
>  <molecule>
CC1(C)[C@H](C=C(Cl)Cl)[C@H]1C(=O)OCc1cccc(Oc2ccccc2)c1

>  <label>
inactive

$$$$
>  <molecule>
Nc1ccc(N)c([N+](=O)[O-])c1

>  <label>
inactive

$$$$
>  <molecule>
CC(=O)OC(C)(C)C1CC=C(C)CC1 (stereo not drawn)

>  <label>
active

$$$$

Source of measurements: PubChem BioAssay (EPA / NIEHS)
